Reference for the values: paper PMC8308496

assay: RP-18 thin layer chromatography (RM); assay type: physicochemical; settings: RP-18 F254s TLC, acetonitrile/pH 7.4 phosphate buffered saline 70:30 (v/v); RM = log (1/Rf−1)
quantity-kind: RM

compound | reported
CCC(=O)O[C@H]1CC[C@H]2[C@@H]3CCC4=CC(=O)CC[C@]4(C)[C@H]3CC[C@]12C [compound 32, Testosterone propionate] | 0.85
CC(=O)OCC(=O)[C@H]1CC[C@H]2[C@@H]3CCC4=CC(=O)CC[C@]4(C)[C@H]3CC[C@]12C [compound 30, Deoxycortisone acetate] | 0.41

# context switch: different compound, same RM
What RM value was documented for this compound, C#C[C@]1(O)CC[C@H]2[C@@H]3[C@H](C)CC4=C(CCC(=O)C4)[C@H]3CC[C@@]21C ?
0.33

###

RM for assorted compounds
test: RP-18 thin layer chromatography (RM); assay type: physicochemical; conditions: RP-18 F254s TLC, acetonitrile/pH 7.4 phosphate buffered saline 70:30 (v/v); RM = log (1/Rf−1)

compound | reported
CC(=O)Oc1ccccc1C(=O)O [compound 41, Aspirin] | −0.50
O=C(O)c1ccccc1O [compound 43, Salicylic acid] | −0.37
CC(=O)[C@H]1CC[C@H]2[C@@H]3CCC4=CC(=O)CC[C@]4(C)[C@H]3CC[C@]12C [compound 3, Progesterone] | 0.60

What RM value was documented for this compound, CC(=O)OCC(=O)[C@@]1(O)CC[C@H]2[C@@H]3CCC4=CC(=O)CC[C@]4(C)[C@H]3[C@@H](O)C[C@@]21C [compound 29, HC acetate] ?
−0.12

What RM value was documented for this compound, COC(=O)[C@@H]1CC2=CC(=O)CC[C@]2(C)[C@@]23O[C@@H]2C[C@@]2(C)[C@@H](CC[C@@]24CCC(=O)O4)[C@H]13 [compound 36, Eplerenone] ?
−0.21

What RM value was documented for this compound, C[C@]12CCC(=O)C=C1CC[C@@H]1[C@@H]2[C@@H](O)C[C@@]2(C)[C@H]1CC[C@]2(O)C(=O)CO [compound 2, Hydrocortisone] ?
−0.33

What RM value was documented for this compound, COc1ccc2c(c1)c(CC(=O)O)c(C)n2C(=O)c1ccc(Cl)cc1 [compound 44, Indomethacin] ?
−0.07

###

assay: RP-18 thin layer chromatography (RM); assay type: physicochemical; conditions: RP-18 F254s TLC, acetonitrile/pH 7.4 phosphate buffered saline 70:30 (v/v); RM = log (1/Rf−1)
Kindly apply the following: Y if RM is less than 0.09, N in every other case.

These solved cases illustrate the format of a correct answer.
molecule | class-assignment
CC(=O)OCC(=O)[C@@]1(O)CC[C@H]2[C@@H]3CCC4=CC(=O)CC[C@]4(C)[C@H]3C(=O)C[C@@]21C [compound 31, Cortisone acetate] | Y
C[C@]12C=CC(=O)C=C1CC[C@@H]1[C@@H]2[C@@H](O)C[C@@]2(C)[C@H]1CC[C@]2(O)C(=O)CO | Y
CN1C(C(=O)Nc2ccccn2)=C(O)c2ccccc2S1(=O)=O | Y
C[C@]12CC[C@@H]3c4ccc(OC(=O)c5ccccc5)cc4CC[C@H]3[C@@H]1CC[C@@H]2O [compound 28, Estradiol benzoate] | N
CC(C)Cc1ccc(C(C)C(=O)O)cc1 (stereo not shown) | Y

Okay, now this molecule:
Does the reported RM of C[C@]12CCC(=O)C=C1CC[C@@H]1[C@@H]2CC[C@@]2(C)[C@H]1CC[C@]2(C)O stay below 0.09?
N

###

Experiment: RP-18 thin layer chromatography (RM)
Type: physicochemical
Conditions: RP-18 F254s TLC, acetonitrile/pH 7.4 phosphate buffered saline 70:30 (v/v); RM = log (1/Rf−1)
Method: Thin layer chromatography was performed according to [33] on 10 × 20 cm glass-backed RP-18 F254s TLC plates from Merck, Germany (layer thickness 0.25 mm). Before use, the plates were prewashed with methanol-dichloromethane 1:1 (v/v) and dried overnight in ambient conditions. […] The chromatographic plates were developed in a vertical chromatographic chamber lined with filter paper and previously saturated with the mobile phase vapor for 20 min. […]
quantity-kind: RM
Reply: number alone, nothing else.

compound | RM
CNC(=C[N+](=O)[O-])NCCSCc1ccc(CN(C)C)o1 [compound 40, Ranitidine] | −0.66

What RM value was documented for this compound, CCCCCCC(=O)O[C@H]1CC[C@H]2[C@@H]3CCC4=CC(=O)CC[C@]4(C)[C@H]3CC[C@]12C [compound 34, Testosterone enanthate] ?
1.38

###

test: RP-18 thin layer chromatography (RM); format: physicochemical; conditions: RP-18 F254s TLC, acetonitrile/pH 7.4 phosphate buffered saline 70:30 (v/v); RM = log (1/Rf−1)
quantity-kind: RM
Reply: number alone, nothing else.

What RM value was documented for this molecule, C[C@H]1O[C@@H](O[C@H]2[C@@H](O)C[C@H](O[C@H]3[C@@H](O)C[C@H](O[C@H]4CC[C@@]5(C)[C@H](CC[C@@H]6[C@@H]5C[C@@H](O)[C@]5(C)[C@@H](C7=CC(=O)OC7)CC[C@]65O)C4)O[C@@H]3C)O[C@@H]2C)C[C@H](O)[C@@H]1O [compound 37, Digoxin] ?
−0.91

What RM value was documented for this molecule, COc1ccc2cc([C@H](C)C(=O)O)ccc2c1 [compound 46, Naproxen] ?
−0.16

What RM value was documented for this molecule, COC(=O)c1ccc(O)cc1 [compound 42, Methylparaben] ?
−0.41

What RM value was documented for this molecule, C[C@@H]1C[C@H]2[C@@H]3CCC4=CC(=O)C=C[C@]4(C)[C@@]3(F)[C@@H](O)C[C@]2(C)[C@@]1(O)C(=O)CO [compound 1, Dexamethasone] ?
−0.35

What RM value was documented for this molecule, CC(=O)S[C@@H]1CC2=CC(=O)CC[C@]2(C)[C@H]2CC[C@@]3(C)[C@@H](CC[C@@]34CCC(=O)O4)[C@H]12 [compound 35, Spironolactone] ?
0.14
